Where do these numbers come from? They come from patent US10577373B2.

Some compounds, each annotated with its measured IC50.
system: GM-CSF induced STAT5 phosphorylation mediated by the JAK2/JAK2 homdimeric complex; test: GM-CSF Induced pSTAT5 in Human PBMC; settings: Homo sapiens, PBMC, 20 min, read-out: PBMC_GMCSF_pSTAT5 IC50, human PBMC; GM-CSF 5 ng/mL for 20 minutes; pSTAT5

Example cases with answers are listed next.
CNc1cc(Nc2cccn([C@H]3CCN(CCF)C3)c2=O)nc2c(C(=O)N[C@H]3CC[C@@H]3OC)cnn12; > 50 µM
CNc1cc(Nc2cc(C)cnc2OCCOC)nc2c(C(=O)NC3CCC3)cnn12; > 2.5 µM
CNc1cc(Nc2cccn(-c3ncccc3F)c2=O)nc2c(C(=O)NCC(C)(C)CO)cnn12; > 50 µM

Now let's try a different one.
Q) Returns the measured IC50 for the input compound. Input: COc1ncccc1Nc1cc(NCCCN2CCOCC2)n2ncc(C(=O)N[C@@H]3C[C@@H]3F)c2n1 (stereo in doubt)
A) > 50 µM
